Attribution: patent US20230135635A1

This listing pairs compounds with measured pIC50.
Molecular target: recombinant human ULK1 protein (1-649) (Homo sapiens, UniProt O75385)
Construct: recombinant human ULK1 protein (1-649, SignalChem #U01-11G); purchased SignalChem U01-11G
Sequence (O75385 1-649): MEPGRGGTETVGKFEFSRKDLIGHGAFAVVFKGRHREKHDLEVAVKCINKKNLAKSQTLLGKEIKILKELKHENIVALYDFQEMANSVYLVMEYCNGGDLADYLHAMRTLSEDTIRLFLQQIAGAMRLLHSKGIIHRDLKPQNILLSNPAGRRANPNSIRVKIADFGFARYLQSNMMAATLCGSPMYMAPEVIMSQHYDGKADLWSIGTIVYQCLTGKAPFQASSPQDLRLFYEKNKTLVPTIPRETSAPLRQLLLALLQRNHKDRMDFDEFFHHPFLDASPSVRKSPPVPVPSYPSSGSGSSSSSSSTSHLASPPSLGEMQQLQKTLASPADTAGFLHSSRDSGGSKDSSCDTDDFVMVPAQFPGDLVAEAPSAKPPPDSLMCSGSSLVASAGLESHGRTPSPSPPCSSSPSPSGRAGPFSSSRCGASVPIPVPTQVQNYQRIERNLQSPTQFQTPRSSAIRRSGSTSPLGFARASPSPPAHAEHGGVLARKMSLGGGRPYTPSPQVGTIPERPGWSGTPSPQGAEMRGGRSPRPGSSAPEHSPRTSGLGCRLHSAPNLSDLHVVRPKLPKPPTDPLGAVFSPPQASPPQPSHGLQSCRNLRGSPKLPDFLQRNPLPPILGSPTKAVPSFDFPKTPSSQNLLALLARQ
Assay: ULK1 inhibition assay (ADP Glo)
Type: biochemical
Conditions: Table 1; 25 uM ATP, MBP substrate, one hour
Procedure: Illustrative compounds of Formula I and related analogs are shown in Table 1 (along with their respective IC50 values for ULK1 inhibition assays). […] ULK 1 inhibition was assessed after one hour. […] According to another embodiment, the present disclosure provides methods of producing the above-defined compounds. […] Advantageously, these compounds are conveniently synthesized from readily available starting materials. […]
pIC50: −log10 of the molar value.

Study these solved cases before continuing.
CS(=O)(=O)N1CCc2cc(Nc3ncc(C(F)(F)F)c(NC4CC4)n3)ccc2C1 : 8.00 to 9.00
CNC(=O)c1ccccc1Nc1nc(Nc2ccc3c(c2)CCN(CCC(N)=O)C3)ncc1Br : < 8.00
CC(C)(C)OC(=O)N1CCc2cc(Nc3ncc(N)c(NC4CC4)n3)ccc2C1 : < 8.00
NC(=O)N1CCc2cc(Nc3ncc(C(F)(F)F)c(NC4CC4)n3)ccc2C1 : 8.00 to 9.00
FC(F)(F)c1cnc(Nc2ccc3c(c2)CN(Cc2ccccc2)CC3)nc1NC1CC1 : < 8.00

Task: Returns the measured pIC50 for the input compound. Input: FC(F)(F)c1cnc(Nc2ccc3c(c2)CCN(Cc2cncnc2)C3)nc1NC1CC1
Output: > 9.00

Task: # repeat for CNC(=O)c1ccccc1Nc1nc(Nc2ccc3c(c2)CN(C(=O)CCN)CC3)ncc1Br
Output: < 8.00

Task: # repeat for O=C(CN1CCOCC1)N1CCc2cc(Nc3ncc(C(F)(F)F)c(NC4CC4)n3)ccc2C1
Output: 8.00 to 9.00
